Measured values drawn from ChEMBL document CHEMBL5550104 for this set.

target: DNA polymerase theta (Homo sapiens, UniProt O75417)
Sequence (O75417 whole entry): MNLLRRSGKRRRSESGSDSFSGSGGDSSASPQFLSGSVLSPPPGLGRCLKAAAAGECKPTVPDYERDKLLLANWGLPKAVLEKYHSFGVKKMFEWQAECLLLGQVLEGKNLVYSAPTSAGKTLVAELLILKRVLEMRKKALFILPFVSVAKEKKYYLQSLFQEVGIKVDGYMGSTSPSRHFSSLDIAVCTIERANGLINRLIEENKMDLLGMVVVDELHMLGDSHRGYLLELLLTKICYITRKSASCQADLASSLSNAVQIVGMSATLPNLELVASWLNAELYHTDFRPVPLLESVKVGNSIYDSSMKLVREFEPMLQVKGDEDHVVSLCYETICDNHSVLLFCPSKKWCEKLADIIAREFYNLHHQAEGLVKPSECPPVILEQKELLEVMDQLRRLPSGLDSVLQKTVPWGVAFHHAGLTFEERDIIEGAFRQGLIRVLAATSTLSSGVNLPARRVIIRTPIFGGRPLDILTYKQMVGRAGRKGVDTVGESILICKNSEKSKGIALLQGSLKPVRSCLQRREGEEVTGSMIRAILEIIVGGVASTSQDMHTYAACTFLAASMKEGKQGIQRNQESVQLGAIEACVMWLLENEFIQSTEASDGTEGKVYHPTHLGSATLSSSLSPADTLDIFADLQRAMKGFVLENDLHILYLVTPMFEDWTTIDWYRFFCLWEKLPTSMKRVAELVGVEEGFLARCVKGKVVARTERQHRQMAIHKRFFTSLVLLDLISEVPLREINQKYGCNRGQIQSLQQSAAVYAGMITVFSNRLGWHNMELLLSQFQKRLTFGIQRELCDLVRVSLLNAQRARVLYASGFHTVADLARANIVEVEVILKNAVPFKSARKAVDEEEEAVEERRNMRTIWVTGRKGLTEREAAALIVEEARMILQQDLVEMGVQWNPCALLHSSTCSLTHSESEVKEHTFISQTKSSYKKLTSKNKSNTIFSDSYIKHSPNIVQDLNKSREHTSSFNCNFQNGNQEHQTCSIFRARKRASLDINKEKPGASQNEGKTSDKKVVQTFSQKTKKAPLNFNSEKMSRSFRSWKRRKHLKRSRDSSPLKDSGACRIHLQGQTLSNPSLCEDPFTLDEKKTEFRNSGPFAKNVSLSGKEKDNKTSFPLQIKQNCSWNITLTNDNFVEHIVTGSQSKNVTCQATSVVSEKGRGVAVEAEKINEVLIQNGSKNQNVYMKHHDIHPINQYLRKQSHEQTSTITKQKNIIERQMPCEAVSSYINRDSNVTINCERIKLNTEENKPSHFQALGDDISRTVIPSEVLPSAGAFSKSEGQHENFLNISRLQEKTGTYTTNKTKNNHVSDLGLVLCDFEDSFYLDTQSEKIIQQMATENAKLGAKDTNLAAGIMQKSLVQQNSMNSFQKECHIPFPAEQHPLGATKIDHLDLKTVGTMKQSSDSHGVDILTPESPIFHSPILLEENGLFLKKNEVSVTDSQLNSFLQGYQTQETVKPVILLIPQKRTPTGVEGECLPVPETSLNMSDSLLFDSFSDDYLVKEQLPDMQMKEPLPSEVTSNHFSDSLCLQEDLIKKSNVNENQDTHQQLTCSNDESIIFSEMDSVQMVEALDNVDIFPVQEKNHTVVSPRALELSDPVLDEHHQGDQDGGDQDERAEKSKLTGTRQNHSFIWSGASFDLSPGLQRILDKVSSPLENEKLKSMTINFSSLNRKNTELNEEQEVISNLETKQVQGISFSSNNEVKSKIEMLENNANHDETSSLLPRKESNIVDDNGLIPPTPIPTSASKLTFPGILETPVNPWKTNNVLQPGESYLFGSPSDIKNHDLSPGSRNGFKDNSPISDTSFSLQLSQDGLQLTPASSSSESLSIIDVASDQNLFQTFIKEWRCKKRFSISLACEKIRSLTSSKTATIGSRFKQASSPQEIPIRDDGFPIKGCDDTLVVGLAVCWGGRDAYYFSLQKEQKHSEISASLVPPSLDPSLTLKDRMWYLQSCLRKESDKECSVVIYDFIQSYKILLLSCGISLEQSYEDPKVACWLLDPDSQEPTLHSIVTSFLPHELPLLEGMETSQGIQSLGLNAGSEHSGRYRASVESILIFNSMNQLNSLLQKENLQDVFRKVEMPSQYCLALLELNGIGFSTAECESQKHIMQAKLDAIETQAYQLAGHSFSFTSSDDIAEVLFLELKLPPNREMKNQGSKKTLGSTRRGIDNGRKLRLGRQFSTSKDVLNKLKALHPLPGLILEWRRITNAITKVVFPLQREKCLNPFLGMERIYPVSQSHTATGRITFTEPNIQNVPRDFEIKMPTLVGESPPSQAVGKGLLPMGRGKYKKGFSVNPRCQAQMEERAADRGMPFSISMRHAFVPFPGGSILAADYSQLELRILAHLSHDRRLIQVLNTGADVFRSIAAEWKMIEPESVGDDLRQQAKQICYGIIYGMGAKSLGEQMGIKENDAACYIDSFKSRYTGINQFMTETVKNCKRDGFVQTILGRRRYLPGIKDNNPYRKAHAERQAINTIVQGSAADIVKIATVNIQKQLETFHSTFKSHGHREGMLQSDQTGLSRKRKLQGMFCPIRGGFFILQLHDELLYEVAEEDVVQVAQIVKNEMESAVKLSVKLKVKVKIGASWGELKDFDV
pIC50: −log10 of the molar value.
measured endpoint: pIC50

Below, each entry is followed by its recorded pIC50 result.
[
  {
    "query smiles": "Cc1cc(C(F)(F)F)c(C#N)c(N2CC[C@H]2C(=O)N(C)c2ccc(F)c(Cl)c2)n1",
    "target": "DNA polymerase theta (Homo sapiens, UniProt O75417)",
    "pIC50": 6.98
  },
  {
    "query smiles": "Cc1cc(C(F)(F)F)cc(N2CC[C@H]2C(=O)N(C)c2ccc(F)c(Cl)c2)n1",
    "target": "DNA polymerase theta (Homo sapiens, UniProt O75417)",
    "pIC50": 6.66
  },
  {
    "query smiles": "Cc1cc(C(F)(F)F)c(C#N)c(N2C(=O)C[C@H]2C(=O)N(C)c2ccc(F)c(Cl)c2)n1",
    "target": "DNA polymerase theta (Homo sapiens, UniProt O75417)",
    "pIC50": 6.07
  }
]

(a) Cc1cc(C(F)(F)F)cc(N2CCOC[C@H]2C(=O)N(C)c2ccc(F)c(Cl)c2)n1
(b) Cc1cc(C(F)(F)F)c(C#N)c(N2CC[C@@H](O)[C@H]2C(=O)N(C)c2ccc(F)c(Cl)c2)n1
Lab note: record which item had the higher pIC50, a or b . Please identify the chosen entry by its label.
b
(b: 8.10, a: 5.41)

(1) Cc1cc(C(F)(F)F)c(C#N)c(N2C[C@@H](CCl)[C@H]2C(=O)N(C)c2ccc(F)c(Cl)c2)n1
(2) Cc1cc(C(F)(F)F)cc(N2C(=O)C[C@H]2C(=O)N(C)c2ccc(F)c(Cl)c2)n1
Lab note: record which item had the higher pIC50, 1 or 2 . Please identify the chosen entry by its label.
2
(2: 7.38, 1: 6.03)
